- Tested on: mouse acetylcholine bromide-induced abdominal constriction
- protocol: Mouse Acetylcholine Bromide-Induced Abdominal Constriction Assay (MAIT)
- Assay type: in vivo
- runParameters: po; dose not given; acetylcholine bromide 5.5 mg/kg i.p. 30 minutes after drug
Counter-ions that a name gives are not always drawn.

>  <molecule>
Cl.Cl.c1cncc(Cc2c[nH]cn2)c1

>  <% inh of MAIT>
47 po %

$$$$
>  <molecule>
Brc1cncc(Cc2c[nH]cn2)c1.O=C(O)/C=C/C(=O)O

>  <% inh of MAIT>
54 po %

$$$$
>  <molecule>
CC(c1cncc(Br)c1)c1c[nH]cn1 (centres unmarked) [Fumarate]

>  <% inh of MAIT>
53 po %

$$$$
>  <molecule>
c1ccc2nc(Cc3c[nH]cn3)ccc2c1

>  <% inh of MAIT>
20 po %

$$$$
>  <molecule>
Cc1ncccc1Cc1c[nH]cn1.Cl.Cl

>  <% inh of MAIT>
93 po %

$$$$
>  <molecule>
c1ccc(C(c2ccccn2)c2c[nH]cn2)cc1 (centres unmarked)

>  <% inh of MAIT>
13 po %

$$$$
>  <molecule>
Cl.c1ccc(Cc2c[nH]cn2)nc1

>  <% inh of MAIT>
40 po %

$$$$
>  <molecule>
Cc1ncccc1C(C)c1c[nH]cn1 (centres unmarked) [Dihydrochloride]

>  <% inh of MAIT>
33 po %

$$$$
